Taken from patent US20250171562A1.

Recorded measurements of Max effect, one per entry
target: T1, recombinant human IgE (human, UniProt P01854-1 1-428); assay: IgE-FcεRIα displacement ELISA
T1 construct: made in-house (ALK); preloaded on immobilised FcεRIα in the displacement ELISA
T1 sequence (P01854 other isoform, or with tags, fused parts or gaps): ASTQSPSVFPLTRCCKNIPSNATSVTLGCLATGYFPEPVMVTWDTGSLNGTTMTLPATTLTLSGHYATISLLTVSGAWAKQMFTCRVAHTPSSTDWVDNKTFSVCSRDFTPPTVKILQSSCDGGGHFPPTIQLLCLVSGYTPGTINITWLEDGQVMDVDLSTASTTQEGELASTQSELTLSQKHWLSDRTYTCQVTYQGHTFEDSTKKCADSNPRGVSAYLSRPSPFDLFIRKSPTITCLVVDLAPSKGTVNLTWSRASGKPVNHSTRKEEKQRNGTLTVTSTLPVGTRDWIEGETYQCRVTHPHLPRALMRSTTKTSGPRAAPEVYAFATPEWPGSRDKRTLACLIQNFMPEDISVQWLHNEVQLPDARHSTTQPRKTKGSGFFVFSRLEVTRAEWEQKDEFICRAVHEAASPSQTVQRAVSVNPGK

{"binder": "sdAb F3 (VHH) VHH: DVQLQESGGGLVQAGGSLKLSCAASRGSLSRWDVAWFRQAPGKERSFVTRISWSGTTSYYADAVKGRFAISRDNAKNTVYLQMNSLKPEDTAVYYCAVALYGNRGYYDVNAHSYWGQGTQVTVS", "Max effect": "0%"}
{"binder": "sdAb E1 (VHH) VHH: DVQLQESGGGLVQAGGSLRLSCLASGRTFTTTSGYNMGWFRQAPGKEREFVAGIKWVSGSNRAYAESVKGRFTISRDNAKNTVYLQMNSLKPEDTAVYYCAAATGQSYVPIREYEYVYWGQGTQVTVS", "Max effect": "< 20%"}

Exercise: // Max effect lookup, key: B3A1(G4S)4 (bispecific antibody) DVQLQESGGGLVQAGGSLRLSCAASGFIFRLAGMSWVRQAPGKGFEWVSGITMDGSTTNYADSVKGRFTISRDNSKNRLYLQMNSLKPEDTAVYYCARGAKGGYNDPRGQGTQVTVSGGGGSGGGGSGGGGSGGGGSEVQLLESGGGLVQPGGSLRLSCAASGFTFGNYDMAWVRQAPGKRPEWVSSIDTGGDITHYADSVKGRFTISRDNAKNTLYLQMNSLRPEDTAVYWCATDEEYALGPNEFDYYGQGTLVTVS
Solution: > 95%
